System: NCI-H1373
procedure-text: Growth inhibition of human NCI-H1373 cells assessed as cell viability after 6 days by CellTiter-Glo assay
Assay type: functional, cell-based
condition-set: NCI-H1373, 144 h

| mol | unit | IC50 |
| --- | --- | --- |
| C=CC(=O)N1CC2(CCN(c3nc(OC4CCN(CC)CC4)nc4c(F)c(-c5c(C)ccc6[nH]ncc56)c(Cl)cc34)CC2)C1 | nM | 120 |
| C=CC(=O)N1CC2(CCN(c3nc(OC4CCN(C)CC4)nc4c(F)c(-c5c(C)ccc6[nH]ncc56)c(Cl)cc34)CC2)C1 | nM | 100 |
| C=CC(=O)N1CC2(CCN(c3nc(NC4CCN(C)CC4)nc4c(F)c(-c5c(C)ccc6[nH]ncc56)c(Cl)cc34)CC2)C1 | nM | 390 |
| C=CC(=O)N1CCN(c2nc(NC3CCN(C)CC3)nc3c(F)c(-c4c(C)ccc5[nH]ncc45)c(Cl)cc23)CC1 | nM | 650 |
| C=CC(=O)N1CC2(CCN(c3nc(NC4CCN(C)CC4)nc4c(F)c(-c5c(C)ccc6[nH]ncc56)c(Cl)cc34)C2)C1 | nM | 950 |

###

procedure-text: Intrinsic clearance in human liver microsomes at 0.1 to 0.2 umol/L measured after 30 mins in presence of NADPH by LC-MS/MS analysis
Assay type: ADME, Microsome
condition-set: dose 0.1-0.2 µmol/L, read-out: CLH

| mol | unit | CLint scaled |
| --- | --- | --- |
| C=CC(=O)N1CC2(CCN(c3nc(OC4CCN(CC)CC4)nc4c(F)c(-c5c(C)ccc6[nH]ncc56)c(Cl)cc34)CC2)C1 | mL/min/kg | 37 |
| C=CC(=O)N1CC2(CCN(c3nc(OC4CCN(C)CC4)nc4c(F)c(-c5c(C)ccc6[nH]ncc56)c(Cl)cc34)CC2)C1 | mL/min/kg | 35 |

###

Listed compounds paired with reported IC50
subject-of-test: GTPase KRas (Homo sapiens, UniProt P01116, G12C)
procedure-text: Inhibition of biotinylated Avi-tagged GDP-bound KRAS G12C mutant (1 to 185 residues) (unknown origin) assessed as inhibition of KRAS G12C mutant/SOS/GST-tagged c-Raf complex formation incubated for 1 hr and measured by fluorescence based assay
measured-property: IC50 (nM)

| mol | measured-property | unit | experimental-value |
| --- | --- | --- | --- |
| C=CC(=O)N1CC2(CCN(c3nc(OC4CCN(C)CC4)nc4c(F)c(-c5c(C)ccc6[nH]ncc56)c(Cl)cc34)CC2)C1 | IC50 | nM | 70 |
| C=CC(=O)N1CC2(CCN(c3nc(NC4CCN(C)CC4)nc4c(F)c(-c5c(C)ccc6[nH]ncc56)c(Cl)cc34)CC2)C1 | IC50 | nM | 350 |
| C=CC(=O)N1CC2(CCN(c3nc(NC4CCN(C)CC4)nc4c(F)c(-c5c(C)ccc6[nH]ncc56)c(Cl)cc34)C2)C1 | IC50 | nM | 160 |
| C=CC(=O)N1CC2(CCN(c3nc(OCCCN4CCCCC4)nc4c(F)c(-c5c(C)ccc6[nH]ncc56)c(Cl)cc34)CC2)C1 | IC50 | nM | 370 |
| C=CC(=O)N1CCC2(C1)CN(c1nc(NC3CCN(C)CC3)nc3c(F)c(-c4c(C)ccc5[nH]ncc45)c(Cl)cc13)C2 | IC50 | nM | 18000 |
| C=CC(=O)N1CC2(CCN(c3nc(OC4CCN(CC)CC4)nc4c(F)c(-c5c(C)ccc6[nH]ncc56)c(Cl)cc34)CC2)C1 | IC50 | nM | 77 |
| C=CC(=O)N1CC2(CCN(c3nc(OC4(CN(C)C)CCC4)nc4c(F)c(-c5c(C)ccc6[nH]ncc56)c(Cl)cc34)CC2)C1 | IC50 | nM | 770 |
